- Tested on: SW480
- Assay protocol: cell viability (CellTiter-Glo) relative to plate median (fraction of plate median); higher = more viable cells
- Protocol conditions: 5 µM; treatment time 24 h; reporter: 7TFP
# label = yes (1) if cell viability < 1 else no (0)

Observe how each entry below is paired with its result.
Molecule: CCCOc1ccc2[nH]c(NC(=O)OC)nc2c1
Assay target: SW480
Category: no (0)
--
Molecule: C[C@H]1O[C@@H](O[C@H]2[C@@H](O)C[C@H](O[C@H]3[C@@H](O)C[C@H](O[C@H]4CC[C@@]5(C)[C@H](CC[C@@H]6[C@@H]5CC[C@]5(C)[C@@H](C7=CC(=O)OC7)CC[C@]65O)C4)O[C@@H]3C)O[C@@H]2C)C[C@H](O)[C@@H]1O
Assay target: SW480
Category: yes (1)
--
Molecule: CCN(CC)CCCC(C)Nc1ccnc2cc(Cl)ccc12 (stereo unspecified)
Assay target: SW480
Category: no (0)
--
Molecule: C=C1CC[C@H](O)C/C1=C/C=C1\CCC[C@]2(C)[C@@H]([C@H](C)/C=C/[C@H](C)C(C)C)CC[C@@H]12
Assay target: SW480
Category: yes (1)
--
Molecule: CCC(=O)O[C@@H]1[C@@H](OC2C(C)/C=C/C(=O)OC(C)C(CO[C@@H]3O[C@H](C)[C@@H](OC(=O)CC)[C@@H](OC)[C@H]3OC)C3OC3/C=C/C(=O)C(C)(O)CC2C)O[C@@H](C)C[C@H]1OC (stereo partly specified)
Assay target: SW480
Category: no (0)

Input: Say whether its cell viability is strictly beneath 1. Entry: NS(=O)(=O)c1cc2c(cc1Cl)N=CNS2(=O)=O
Output: yes (1)

Input: Say whether its cell viability is strictly beneath 1. Entry: CNCCCN1c2ccccc2CCc2ccccc21
Output: yes (1)

Input: Say whether its cell viability is strictly beneath 1. Entry: CN(C)CCC=C1c2ccccc2C=Cc2ccccc21
Output: no (0)

Input: Say whether its cell viability is strictly beneath 1. Entry: Cc1noc(NS(=O)(=O)c2ccc(N)cc2)c1C
Output: yes (1)

Input: Say whether its cell viability is strictly beneath 1. Entry: CO/N=C(\C(=O)N[C@@H]1C(=O)N2C(C(=O)OCOC(=O)C(C)(C)C)=C(/C=C\c3scnc3C)CS[C@H]12)c1csc(N)n1
Output: yes (1)

Input: Say whether its cell viability is strictly beneath 1. Entry: COc1cc([S+](C)[O-])ccc1-c1nc2cccnc2[nH]1 (stereo unspecified)
Output: yes (1)

Input: Say whether its cell viability is strictly beneath 1. Entry: O=C1CN(/N=C/c2ccc(-c3ccc([N+](=O)[O-])cc3)o2)C(=O)N1
Output: yes (1)

----------
- Tested on: HCT116
- Assay protocol: TCF/Wnt firefly luciferase reporter signal relative to plate median (fraction of plate median); higher = higher Wnt reporter signal
- Protocol conditions: 10 µM; treatment time 24 h; reporter: TCF4/Wnt
Binary call on TCF/Wnt firefly luciferase reporter signal: t from 0.9 upward, f beneath that.

Input: Answer whether TCF/Wnt firefly luciferase reporter signal of O=c1c(O)c(-c2ccc(O)c(O)c2)oc2cc(O)cc(O)c12 [Quercetin (Sophoretin)] is greater than or equal to 0.9.
Output: t

Input: Answer whether TCF/Wnt firefly luciferase reporter signal of C[S+]([O-])c1ccc(-c2nc(-c3ccc(F)cc3)c(-c3ccncc3)[nH]2)cc1 (configuration not stated) is greater than or equal to 0.9.
Output: t

Input: Answer whether TCF/Wnt firefly luciferase reporter signal of Nc1ccc(C(=O)Nc2cccc(-c3nc(N4CCOCC4)c4oc5ncccc5c4n3)c2)cn1 is greater than or equal to 0.9.
Output: f

Input: Answer whether TCF/Wnt firefly luciferase reporter signal of O=C(NOCC(O)CO)c1cc(Br)c(F)c(F)c1Nc1ccc(I)cc1F (configuration not stated) is greater than or equal to 0.9.
Output: t

Input: Answer whether TCF/Wnt firefly luciferase reporter signal of COc1ccc2c3n(c(=NC(=O)c4cccnc4)nc2c1OC)CCN3 is greater than or equal to 0.9.
Output: t

Input: Answer whether TCF/Wnt firefly luciferase reporter signal of C#Cc1cccc(Nc2ncnc3cc(OCCOC)c(OCCO)cc23)c1 [OSI-420 (Desmethyl Erlotinib)] is greater than or equal to 0.9.
Output: f

Input: Answer whether TCF/Wnt firefly luciferase reporter signal of N#CC1(c2ccc(NC(=O)c3cccnc3NCc3ccncc3)cc2)CCCC1 is greater than or equal to 0.9.
Output: f

Input: Answer whether TCF/Wnt firefly luciferase reporter signal of CCn1cc(-c2ccnc3[nH]c(-c4cccc(CN(C)C)c4)cc23)c(-c2ccc(NC(=O)N(C)C)cc2)n1 is greater than or equal to 0.9.
Output: t

----------
- Tested on: DLD1
- Assay protocol: TCF/Wnt firefly luciferase reporter signal relative to plate median (fraction of plate median); higher = higher Wnt reporter signal
- Protocol conditions: 5 µM; treatment time 24 h; reporter: 7TFP
Each entry below lists one item and its recorded TCF/Wnt firefly luciferase reporter signal value.

Input: Reported TCF/Wnt firefly luciferase reporter signal for CC(C)(C)NC[C@H](O)COc1cccc2c1CCCC2=O : what is it?
Output: 0.886

Input: Reported TCF/Wnt firefly luciferase reporter signal for C(=C\c1ccccc1)/CN1CCN(C(c2ccccc2)c2ccccc2)CC1 : what is it?
Output: 1.17

----------
- Test system: HCT116
- Assay protocol: cell viability (CellTiter-Glo) relative to plate median (fraction of plate median); higher = more viable cells
- Protocol conditions: 10 µM; treatment time 24 h; reporter: TCF4/Wnt
Readout label: cell viability
The reply should be a number, written without any unit.

Compound: CO[C@H]1C[C@@H]2CC[C@@H](C)[C@@](O)(O2)C(=O)C(=O)N2CCCC[C@H]2C(=O)O[C@H]([C@H](C)C[C@@H]2CC[C@@H](OCCO)[C@H](OC)C2)CC(=O)[C@H](C)/C=C(\C)[C@@H](O)[C@@H](OC)C(=O)[C@H](C)C[C@H](C)/C=C/C=C/C=C/1C [Everolimus (RAD001)]
Assay target: HCT116
cell viability: 0.974

Input: Form field: cell viability recorded for CC(=O)Nc1nc(C)c(-c2ccc(Cl)c(S(=O)(=O)NCCO)c2)s1 with HCT116 (enter value)
Output: 0.974

Input: Form field: cell viability recorded for CS(=O)(=O)CCNCc1ccc(-c2ccc3ncnc(Nc4ccc(OCc5cccc(F)c5)c(Cl)c4)c3c2)o1 [Lapatinib Ditosylate (Tykerb)] with HCT116 (enter value)
Output: 0.972

----------
- Test system: HCT116
- Assay protocol: cell viability (CellTiter-Glo) relative to plate median (fraction of plate median); higher = more viable cells
- Protocol conditions: 5 µM; treatment time 24 h; reporter: TCF4/Wnt
Readout label: cell viability

Compound: CC1(C)Oc2ccc3ccc(=O)oc3c2CC1O (configuration not stated)
cell viability: 1.01
--
Compound: CC(C)CCC[C@@H](C)[C@H]1CC[C@H]2[C@@H]3CC=C4C[C@@H](O)CC[C@]4(C)[C@H]3CC[C@]12C
cell viability: 1
--
Compound: N=C(N)N/N=C/c1c(Cl)cccc1Cl
cell viability: 1.02
--
Compound: CC1/C(=N/O)C[C@@H]2C[C@H]1C2(C)C (some centres not stated)
cell viability: 1.09
--
Compound: CC1(C)[C@@H](O)CC[C@]2(C)[C@H]3C(=O)C=C4[C@@H]5C[C@@](C)(C(=O)O)CC[C@]5(C)CC[C@@]4(C)[C@]3(C)CC[C@@H]12
cell viability: 1.03

Input: Reported cell viability for CC(N)C(=O)OC(C)(C)Cc1ccc(Cl)cc1 (configuration not stated) : what is it?
Output: 1.15

Input: Reported cell viability for COC(=O)Nc1nc2cc(Sc3ccccc3)ccc2[nH]1 : what is it?
Output: 1.03

Input: Reported cell viability for C[C@@H]1O[C@@H](O[C@H]2[C@H](Oc3cc(O)c4c(=O)cc(-c5ccc(O)cc5)oc4c3)O[C@H](CO)[C@@H](O)[C@@H]2O)[C@H](O)[C@H](O)[C@H]1O : what is it?
Output: 1.03

Input: Reported cell viability for CC(C)/C(O)=C1/C(=O)O[C@@H](c2ccoc2)[C@]2(C)C(O)[C@@H](O)[C@@]34OC5(C)OC67CC(C)(C(O)[C@]6(O)[C@@H](O)[C@]3(O5)C12)[C@H](CC(=O)O)[C@]74C (some centres not stated) : what is it?
Output: 0.985

Input: Reported cell viability for CCN(CC)CCOC(=O)C(c1ccccc1)C1CCCCC1 (configuration not stated) : what is it?
Output: 0.938

Input: Reported cell viability for C=C1CCC2C(CC2(C)C)C(=C)CC/C1=N/O (configuration not stated) : what is it?
Output: 1.02

Input: Reported cell viability for C=CC(C)(O)CCC1C(=C)CC(O)C2C(C)(C)CCCC12C (configuration not stated) : what is it?
Output: 0.865

Input: Reported cell viability for NCCCCC(=O)O : what is it?
Output: 0.981

Input: Reported cell viability for COC(=O)C[C@H]1C2(C)CC34OC5(C)O[C@@]6([C@H](OC(C)=O)C(OC(C)=O)[C@]7(C)C(/C(=C(/O)C(C)C)C(=O)O[C@H]7c7ccoc7)[C@@]6(O5)[C@H](OC(C)=O)[C@@]3(O)C2OC(=O)C(C)C)[C@]14C (some centres not stated) : what is it?
Output: 0.959

Input: Reported cell viability for CC(C)[C@@H]1CC[C@@H](C)C[C@H]1OC(=O)c1ccccc1 : what is it?
Output: 1.03

Input: Reported cell viability for CC(CN(C)C)CN1c2ccccc2CCc2ccccc21 (configuration not stated) : what is it?
Output: 0.929

Input: Reported cell viability for C[C@]12C=CC(=O)C=C1CC[C@@H]1[C@@H]2[C@@H](O)C[C@@]2(C)[C@H]1CC[C@]2(O)C(=O)COC(=O)CCC(=O)O : what is it?
Output: 1.01

Input: Reported cell viability for C=C[C@H]1CN2CC[C@H]1C[C@@H]2[C@@H](O)c1ccnc2ccc(OC)cc12 : what is it?
Output: 0.966

Input: Reported cell viability for OCC(O)CN1CCN(c2ccccc2)CC1 (configuration not stated) : what is it?
Output: 0.995
